System: Human rhinovirus sp.
assay: Antiviral activity against rhinoviral 9 serotype in a plaque inhibition assay using monolayers of M-HeLa cells
Format: functional, organism-based
pIC50: −log10 of the molar value.
property-label: pIC50

| chemical-string | experimental-target | pIC50 |
| --- | --- | --- |
| Cc1ccc(Cn2cnc3c(N(C)C)nc(C(F)(F)F)nc32)c(C)c1 | Human rhinovirus sp. | 6.02 |
| Cc1ccc(Cn2cnc3c(N(C)C)nc(C(F)(F)F)nc32)cc1 | Human rhinovirus sp. | 6.46 |

(P) COc1ccc(Cn2cnc3c(N(C)C)nc(C(F)(F)F)nc32)cc1C
(Q) CN(C)c1nc(C(F)(F)F)nc2c1ncn2Cc1ccccc1
In: Consider P and Q . Which of these has its pIC50 at a higher number? I would appreciate it if you answered with the label of your choice.
Out: Q

(a) CN(C)c1nc(C(F)(F)F)nc2c1ncn2Cc1ccc(Cl)c(N)c1
(b) CN(C)c1nc(C(F)(F)F)nc2c1ncn2Cc1ccc(F)cc1
In: Consider a and b . Which of these has its pIC50 at a higher number? I would appreciate it if you answered with the label of your choice.
Out: b

----------
Test system: Human rhinovirus sp.
assay: Antiviral activity against rhinoviral 9 serotype in a plaque inhibition assay using monolayers of M-HeLa cells
Assay type: functional, organism-based
pIC50: −log10 of the molar value.
property-label: pIC50

Sample records with pIC50:
| chemical-string | data-value |
| --- | --- |
| CN(C)c1nc(C(F)(F)F)nc2c1ncn2Cc1ccccc1Cl | 5.72 |
| CN(C)c1nc(C(F)(F)F)nc2c1ncn2Cc1ccc([N+](=O)[O-])cc1 | 5.25 |

(1) CN(C)c1nc(C(F)(F)F)nc2c1ncn2Cc1ccc(Cl)cc1Cl
(2) CN(C)c1nc(C(F)(F)F)nc2c1ncn2Cc1cccc(F)c1
In: Consider 1 and 2 . Which of these has its pIC50 at a higher number? I would appreciate it if you answered with the label of your choice.
Out: 2
(2: 6.52, 1: 6.03)

(P) Cc1cc(Cn2cnc3c(N(C)C)nc(C(F)(F)F)nc32)ccc1Cl
(Q) CN(C)c1nc(C(F)(F)F)nc2c1ncn2Cc1ccc(Cl)c(NC=O)c1
(R) CN(C)c1ccc(Cn2cnc3c(N(C)C)nc(C(F)(F)F)nc32)cc1
In: Number of compounds to sort: 3. Sort criterion: pIC50, ascending. List the labels, following the order given in the request.
Out: R, Q, P

(I) CN(C)c1nc(C(F)(F)F)nc2c1ncn2Cc1ccc(Cl)cc1
(II) CC(C)Oc1ccc(Cn2cnc3c(N(C)C)nc(C(F)(F)F)nc32)cc1
In: Consider I and II . Which of these has its pIC50 at a higher number? I would appreciate it if you answered with the label of your choice.
Out: I
(I: 6.05, II: 5.82)

(a) Cc1ccc(Cn2cnc3c(N(C)C)nc(C(F)(F)F)nc32)cc1C
(b) Cc1ccccc1Cn1cnc2c(N(C)C)nc(C(F)(F)F)nc21
In: Please choose the item with the lower pIC50 value from this pair: a and b I would appreciate it if you answered with the label of your choice.
Out: b

(I) CN(C)c1nc(C(F)(F)F)nc2c1ncn2Cc1ccc(Cl)c(Cl)c1
(II) CN(C)c1nc(C(F)(F)F)nc2c1ncn2Cc1ccc(C(F)(F)F)cc1
In: Please choose the item with the lower pIC50 value from this pair: I and II I would appreciate it if you answered with the label of your choice.
Out: II

(A) CN(C)c1nc(C(F)(F)F)nc2c1ncn2Cc1ccc(Br)cc1
(B) Cc1cc(Cl)ccc1Cn1cnc2c(N(C)C)nc(C(F)(F)F)nc21
In: Consider A and B . Which of these has its pIC50 at a higher number? I would appreciate it if you answered with the label of your choice.
Out: A
(A: 6.15, B: 5.70)
